- target-under-test: myeloperoxidase (Homo sapiens (Human))
- Sequence (P05164 49-745): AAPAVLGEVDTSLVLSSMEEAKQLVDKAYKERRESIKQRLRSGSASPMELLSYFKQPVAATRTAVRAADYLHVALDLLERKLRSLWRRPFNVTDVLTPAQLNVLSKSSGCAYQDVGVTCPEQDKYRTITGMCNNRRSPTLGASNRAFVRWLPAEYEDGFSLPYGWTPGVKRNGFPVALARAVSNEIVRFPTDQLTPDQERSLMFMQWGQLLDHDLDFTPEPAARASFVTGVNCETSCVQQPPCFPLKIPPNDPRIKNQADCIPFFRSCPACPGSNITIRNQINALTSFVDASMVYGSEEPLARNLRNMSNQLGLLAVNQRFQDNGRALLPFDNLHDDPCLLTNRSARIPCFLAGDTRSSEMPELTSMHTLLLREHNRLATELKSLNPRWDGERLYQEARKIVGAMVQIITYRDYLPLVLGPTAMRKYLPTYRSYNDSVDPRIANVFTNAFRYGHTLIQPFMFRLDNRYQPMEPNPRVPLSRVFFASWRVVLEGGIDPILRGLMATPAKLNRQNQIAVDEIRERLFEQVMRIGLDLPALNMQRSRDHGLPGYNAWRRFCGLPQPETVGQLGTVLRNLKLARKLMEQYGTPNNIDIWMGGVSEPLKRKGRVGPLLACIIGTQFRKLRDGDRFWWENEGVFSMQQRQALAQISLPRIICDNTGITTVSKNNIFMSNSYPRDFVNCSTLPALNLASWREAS
- assay-details: MPO Peroxidation Assay (Amplex Red Assay)
- Assay type: biochemical
- conditions: MPO peroxidation activity, 100 mM KPi (pH 7.4), ten minute preincubation; potency ranges defined in nM
observation-type: IC50

Worked examples follow.
Nc1cc(C2CCNCc3cccc(c3)OCc3cccc(c3)Cn3cc2cn3)c2nn[nH]c2n1 (centres unmarked)    1 to 100 nM
Nc1cc(C2CCNCCc3cccc(c3)Oc3cccc(c3)Cn3cc2cn3)c2nn[nH]c2n1 (single isomer, unassigned) [Example 4]    101 to 999 nM
Nc1cc(C2CCNCCc3cccc(c3)-c3cccc(c3)Cn3cc2cn3)c2nn[nH]c2n1 (centres unmarked)    101 to 999 nM
Nc1cc(C2CCNCC(F)(F)c3cccc(c3)Oc3cccc(c3)Cn3cc2cn3)c2nn[nH]c2n1 (centres unmarked)    1000 to 10000 nM

Now look at this one.
# IC50 lookup, item C[C@H]1Oc2cccc(c2)Cn2cc(cn2)C(c2cc(N)nc3[nH]nnc23)CCNCc2cccc1c2 (some centres unmarked)
101 to 999 nM

// data source = patent US10577383B2
